# Tested target: PARP-1 enzyme (Homo sapiens)
# Construct: made in house
# Sequence (P09874 whole entry): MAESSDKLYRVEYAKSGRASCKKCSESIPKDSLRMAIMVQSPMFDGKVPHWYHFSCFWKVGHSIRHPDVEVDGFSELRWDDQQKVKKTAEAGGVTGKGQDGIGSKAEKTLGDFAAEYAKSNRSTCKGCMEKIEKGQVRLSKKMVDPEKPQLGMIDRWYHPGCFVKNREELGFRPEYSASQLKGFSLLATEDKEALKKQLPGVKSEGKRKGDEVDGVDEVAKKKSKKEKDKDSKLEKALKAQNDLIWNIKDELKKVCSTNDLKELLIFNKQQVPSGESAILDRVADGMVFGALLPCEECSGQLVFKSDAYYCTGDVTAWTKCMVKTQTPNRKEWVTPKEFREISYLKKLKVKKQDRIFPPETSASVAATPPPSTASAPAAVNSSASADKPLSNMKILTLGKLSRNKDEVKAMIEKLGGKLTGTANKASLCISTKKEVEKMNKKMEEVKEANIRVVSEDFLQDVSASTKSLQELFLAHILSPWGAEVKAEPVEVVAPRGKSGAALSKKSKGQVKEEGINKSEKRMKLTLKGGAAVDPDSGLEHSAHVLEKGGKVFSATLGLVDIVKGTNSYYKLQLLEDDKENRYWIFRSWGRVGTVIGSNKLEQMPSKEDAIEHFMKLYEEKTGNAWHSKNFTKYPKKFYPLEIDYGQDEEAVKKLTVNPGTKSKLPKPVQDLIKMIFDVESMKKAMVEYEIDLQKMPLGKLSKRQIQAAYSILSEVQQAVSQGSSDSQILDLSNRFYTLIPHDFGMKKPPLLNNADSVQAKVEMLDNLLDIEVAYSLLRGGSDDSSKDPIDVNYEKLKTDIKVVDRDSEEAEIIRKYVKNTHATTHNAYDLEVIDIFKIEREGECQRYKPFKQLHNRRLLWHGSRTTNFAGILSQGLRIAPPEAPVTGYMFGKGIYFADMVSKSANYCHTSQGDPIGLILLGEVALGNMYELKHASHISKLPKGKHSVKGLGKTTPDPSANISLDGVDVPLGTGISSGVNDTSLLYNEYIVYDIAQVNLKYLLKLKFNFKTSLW
# Procedure summary: In vitro filtration assay for PARP-1 inhibitory activity
# Assay type: biochemical
# Conditions: nicked DNA activated PARP-1, [32P]-NAD+, histones; read-out: In vitro filtration assay pIC50 (converted)
# Procedure: Compounds of the present invention were tested in an in vitro filtration assay assessing PARP-1 activity (triggered in the presence of nicked DNA) by means of its histone poly(ADP-ribosyl)ation activity using [^32P]-NAD as ADP-ribosyl donor. The radioactive ribosylated histones were precipitated by trichloroacetic acid (TCA) in 96-well filterplates and the incorporated [^32P] measured using a scintillation counter […]
Outcome measure: IC50 (µM)

Some compounds with recorded IC50:
CCc1nc2ccc(C(c3ccccc3F)n3ccnc3)cc2[nH]c1=O (centres unmarked) [Compound 13] = 4.94
CCc1nc2ccc(C(c3cccc(F)c3)n3ccnc3)cc2[nH]c1=O (centres unmarked) [Compound 12] = 3.6
Cc1cc2ccc(C(CCN(C)C)c3ccccc3)cc2[nH]c1=O (centres unmarked) [Compound 3] = 9.89

I. Cc1nc2ccc(C(c3ccc(C(C)C)cc3)n3ccnc3)cc2[nH]c1=O (centres unmarked) [Compound 8]
II. CCc1nc2ccc(C(c3ccc(Cl)cc3)N3CCCCC3)cc2[nH]c1=O (centres unmarked) [Compound 5]
Name the one with the greater IC50 value, either I or II as given. Return value: the label identifying the chosen record.
I
